In this section we review reported viability at 10 µM values for a set of molecules.
Assay: Cytotoxicity against human H460 cells assessed as cell viability at 10 uM after 72 hrs by MTT assay
Type: functional
Settings: NCI-H460, 72 h, read-out: Activity
Quick note: give the figure in %, leave out the unit.

A selection of reference data follows.
CCCCCCCC(=O)c1c(O)cc(O)cc1CC(=O)OCC : 50
FC(F)(F)c1ccc(C(c2c[nH]c3ccccc23)c2c[nH]c3ccccc23)cc1 : 90
CCCCCCCC(=O)c1c(CC(=O)OCC)cc(OC)cc1OC : 24

INPUT: Tell me the measured viability at 10 µM of `CCCCCCCC(=O)c1c(O)cc(OC)cc1CC(=O)OCC` , please.
OUTPUT: 22

---

Molecular target: Nuclear receptor subfamily 4immunitygroup A member 1 (Homo sapiens)
Experiment: Induction of translocation of NR4A1 from nucleus to cytoplasm in human H460 cells at 10 uM after 8 hrs by DAPI staining-based confocal microscopy relative to control
Type: cell-based
Calls of active or inactive are those of the source. The rule behind the calls is not given here.
Your answer must be one of the following: active, inactive

INPUT: Could you kindly confirm the outcome this assay logged for `CCCCCCCC(=O)c1c(CC(=O)OCC)cc(OC)cc1OC` ?
OUTPUT: inactive

INPUT: Quick one: `CCCCCCCC(=O)c1c(O)cc(O)cc1CC(=O)OCC`
OUTPUT: active

INPUT: Quick one: `FC(F)(F)c1ccc(C(c2c[nH]c3ccccc23)c2c[nH]c3ccccc23)cc1`
OUTPUT: active

INPUT: Quick one: `CCCCCCCC(=O)c1c(O)cc(OC)cc1CC(=O)OCC`
OUTPUT: active
